Measured activation by item
Molecular target: Troponin I, cardiac muscle (Homo sapiens) + Troponin T, cardiac muscle (Homo sapiens) + Troponin C, slow skeletal and cardiac muscles (Homo sapiens) (UniProt P19429+P45379+P63316)
Test: cardiac RTF calcium sensitivity activators, confirmation, biochemical, IANBD-TnC fluorescence, triplicate (AID 504383);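 note: 0% = DMSO at 0.472 mM calcium and 100% = DMSO at 2.9 mM calcium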
Conditions: IANBD-labeled cardiac RTF, Ca2+ sensitivity fluorescence; at 7.2 µM; active compounds read high; scaled from EC20 to saturating calcium; tested at EC20 calcium, 0.472 mM
Among all 2,500 compounds or so, about 1,200 (48%) were called active. So high a share suggests a set chosen from earlier hits. The list shows a part of the results.
OUTCOME_MEASURE: activation (%)

compound=CC(/C=N/Nc1ccc2nncn2n1)=C\c1ccccc1 endpoint_result=70.4
compound="CCOc1ccc(NC(=O)C2CC(=O)N=C(N)S2)cc1 (stereo not drawn)" endpoint_result=4.04
compound=N#C/C(=C/c1ccc(-c2ccccc2)o1)c1nc(-c2cccs2)cs1 endpoint_result=105
compound=Cc1ccc(-c2nc3ncccn3c2Nc2ccc3c(c2)OCCO3)o1 endpoint_result=230
compound=COc1ccc(CNc2oc(COc3ccccc3)nc2C#N)cc1 endpoint_result=62.4
compound=CCSc1nnc(-c2sc3nnc(-c4ccccc4)c(-c4ccccc4)c3c2N)o1 endpoint_result=6.28
compound=COc1[nH]c(/N=C/c2ccccc2)c(C#N)c1C#N endpoint_result=7.9
compound="CC1CC(C)(C)NC(=S)N1CCCC(=O)Nc1ccccc1F (stereo not drawn)" endpoint_result=-0.32
compound=CN(C)c1ccc(/C=C/C(=O)c2cccc(Br)c2)cc1 endpoint_result=9.43
compound="N#CC(C(=O)NCc1ccccc1)c1nc2ccccc2nc1N1CCCC1 (stereo not drawn)" endpoint_result=-1.52
compound=CC(=O)Nc1ccc(SCC(=O)NNC(=O)CN(C)S(=O)(=O)c2ccc(C)cc2)cc1 endpoint_result=98
compound=COCCOC(=O)/C(=C/c1ccc(OC(=O)c2ccccc2)cc1)C(C)=O endpoint_result=8.35
compound=C=CCNc1oc(COc2ccc(C)cc2)nc1C#N endpoint_result=25.2
compound=COc1ncnc2c1N=C1CC(C)(C)CC(N)=C1S2 endpoint_result=70.2
compound=CC1CCN(S(=O)(=O)c2ccc(N=NC3=C(O)CC(C)(C)CC3=O)cc2)CC1 endpoint_result=11.9
compound=Cn1c(/C(C#N)=C/c2ccc(-c3ccc(S(N)(=O)=O)cc3)o2)nc2ccccc21 endpoint_result=9.43
compound="CCN(CC)c1nc2ccccc2nc1C(C#N)C(=O)NCCc1ccccc1 (stereo not drawn)" endpoint_result=532
compound=COc1ccc(CCNC(=O)CN(C)S(=O)(=O)c2ccc3c(c2)CCC(=O)N3)cc1OC endpoint_result=8.22
compound=CCOc1nnc(C)c2c(C)n(-c3cccc(Cl)c3)nc12 endpoint_result=5.31
compound=CC(COC(=O)c1ccccc1)(COC(=O)c1ccccc1)/[N+]([O-])=C/c1ccccc1 endpoint_result=32
compound=O/C=c1\ccc2cccc3nc(C(F)(F)F)nc1c23 endpoint_result=5010
compound="CCC(CC)c1nc(C#N)c(NC(C)c2ccccc2)o1 (stereo not drawn)" endpoint_result=3.34
compound="CSCC(O)Cn1[nH]c(=O)c2cc(Cl)c(Cl)cc2c1=O (stereo not drawn)" endpoint_result=8.73
